System: PC-3 prostate
PROCEDURE TEXT: NCI-60 one-dose screen, 48 h (100 = growth as untreated, 0 = no growth, -100 = all killed)
TEST PARAMETERS: 10 µM unless noted
Compounds without any hit were thinned out: in the full panel of roughly 83,000, 20% have a hit. The source made the active and inactive calls. How the source made its calls: active means growth percent below 10; inactive means the rest.
METRIC NAME: growth

CCN1C(=O)/C(=c2\sc3n(c2=O)C2C(NN=3)N(CC)C(=O)N2CC)c2ccccc21 (stereo not given)    26.3% (inactive)

Lab note: compound COC(=O)[C@H]1Cc2c([nH]c3ccccc23)[C@@H](c2cccs2)N1 tested on PC-3 prostate; recorded growth was 100% (inactive)

Lab note: compound O=C(c1cccc(Br)c1)N1CCN(c2ccnc3cc(Cl)ccc23)CC1 tested on PC-3 prostate; recorded growth was 79% (inactive)

Lab note: compound Cc1ccc2c(c1)C(C)Cc1c(ncnc1-n1cnc3cc(C)ccc31)N2C (stereo not given) tested on PC-3 prostate; recorded growth was 24.5% (inactive)

Lab note: compound Cc1ccc(Cl)cc1N1CCN(C(=O)[C@@H]2C[C@@H]2c2ccc(F)cc2)CC1 tested on PC-3 prostate; recorded growth was 69.1% (inactive)

Lab note: compound C=C(C)[C@@H]1CC[C@]2(C)[C@H](CC(=O)N[C@H]3[C@@H]4C[C@](C)(C(=O)OC)CC[C@]4(C)CC[C@]32C)[C@@]1(C)CCC#N tested on PC-3 prostate; recorded growth was 42.9% (inactive)

Lab note: compound O=C(NNc1ccccc1)C1CCCN1 (stereo not given) tested on PC-3 prostate; recorded growth was 77% (inactive)
